- Test system: MDA-MB-435
Use one of these outcomes when replying: true (1) (active), false (0) (inactive)

For orientation, consider the following solved cases.
{"COMPOUND": "COC(=O)[C@@H](C)C[C@H](Cc1ccc(F)cc1)NC(=O)c1csc([C@@H](C[C@H](C(C)C)N(C)C(=O)[C@@H](NC(=O)[C@H]2CCCCN2C)C2CC2)OC(C)=O)n1", "QUALITATIVE_LABEL": "true (1)"}
{"COMPOUND": "CO[C@H]1/C=C/O[C@@]2(C)Oc3c(C)c(O)c4c(O)c(c(/C=N/N5C(C)CN(Cc6ccc(C#N)cc6)CC5C)c(O)c4c3C2=O)NC(=O)/C(C)=C\\C=C\\[C@H](C)[C@H](O)[C@@H](C)[C@@H](O)[C@@H](C)[C@H](OC(C)=O)[C@@H]1C (some centres undefined)", "QUALITATIVE_LABEL": "false (0)"}
{"COMPOUND": "COc1ccc2c(c1)C(=O)/C(=C/c1ccc(O)cc1)O2", "QUALITATIVE_LABEL": "false (0)"}
{"COMPOUND": "O=C(N/N=C\\c1ccc(N(CCCl)CCCl)cc1)c1cccnc1", "QUALITATIVE_LABEL": "false (0)"}
{"COMPOUND": "COc1ccc2c(c1)/C(=C\\c1c(-c3ccccc3)nc3sccn13)C(=O)N2", "QUALITATIVE_LABEL": "true (1)"}

In: How did this test come out for `OCC#Cc1ccccc1C#Cc1ccc(C#Cc2ccccc2C#CCO)cc1` ?
Out: false (0)

In: How did this test come out for `COc1nc2c(c(=O)n1C)CN(c1ccccc1)C(=O)CN2C` ?
Out: false (0)

In: How did this test come out for `COc1ccc2cc(C(=O)N3CCC([C@@H](C)C(=O)NCc4ccc5c(c4)OCO5)CC3)[nH]c2c1` ?
Out: false (0)

In: How did this test come out for `CC[C@H](C)[C@H](NC(=O)c1ncccn1)C(=O)N(C)[C@H](C[C@@H](OC(C)=O)c1nc(C(=O)N[C@@H](Cc2ccccc2)C[C@H](C)C(=O)OC)cs1)C(C)C` ?
Out: true (1)

* * *

- Test system: HOP-18 NSCLC
- PROTOCOL_NOTES: NCI tumour cell line growth inhibition, 48 h
TGI listing for selected compounds.

{"COMPOUND": "CC(C)(Oc1ccc2c(=O)cc(-c3ccc(Cl)cc3)oc2c1)C(=O)Nc1c(Cl)cccc1Cl", "PROPERTY_LABEL": "TGI", "VALUE": "> 100 µM"}
{"COMPOUND": "CC1CCCc2c1n[nH]c2CC1CC(=O)NC(=O)C1 (centres undefined)", "PROPERTY_LABEL": "TGI", "VALUE": "> 100 µM"}
{"COMPOUND": "CCCC(=O)Oc1ccc(/C=N/NC(N)=S)nc1", "PROPERTY_LABEL": "TGI", "VALUE": "> 100 µM"}

In: Name the recorded TGI for C=CCC1(CN(C)C)CC/C(=C\c2cc(OC)c(OC)c(OC)c2)C1=O (centres undefined) .
Out: > 100 µM

In: Name the recorded TGI for CC(C)(C)OC(=O)NC(Cc1ccccc1)C(=S)N1CCCC1 (centres undefined) .
Out: > 100 µM

In: Name the recorded TGI for C=C1C2CC(OC(C)=O)C3(C)C(c4ccoc4)OC(=O)[C@@H](O)[C@]13OC1C[C@H](OC(C)=O)C(C)(C)[C@H](C(O)C(=O)OC)[C@]12C (some centres undefined) .
Out: > 100 µM

In: Name the recorded TGI for `Oc1cccc2cccnc12` .
Out: > 100 µM

In: Name the recorded TGI for `O=CC1=CCCN(CCc2c[nH]c3ccccc23)C1` .
Out: 109 µM

In: Name the recorded TGI for `N#C[S-].[Ce+3].c1ccc(-c2ccccn2)nc1.c1ccc(-c2ccccn2)nc1.c1ccc(-c2ccccn2)nc1` .
Out: 46.8 µM

* * *

- Tested on: SR leukemia
- PROTOCOL_NOTES: NCI tumour cell line growth inhibition, 48 h
PROPERTY_LABEL: GI50

{"COMPOUND": "CCOc1ccc(Nc2ccnc3cc(Cl)ccc23)cc1", "GI50": "14.7 µM"}
{"COMPOUND": "O=c1cc(-c2ccccc2)oc2c(O)c(O)ccc12", "GI50": "3.35 µM"}
{"COMPOUND": "O=C(N/N=C\\c1ccc(N(CCCl)CCCl)cc1)c1cccnc1", "GI50": "3.1 µM"}

In: Name the recorded GI50 for `O=C1NN(C(=O)c2ccccc2)C(c2ccc(Cl)c(Cl)c2)=C/C1=C\c1ccccc1[N+](=O)[O-]` .
Out: 2.07 µM

In: Name the recorded GI50 for `C[C@]12CC[C@@H]3c4ccc(O)cc4CC[C@H]3[C@@H]1CC(Cc1ccccc1)(Cc1ccccc1)C2=O` .
Out: 4.87 µM

In: Name the recorded GI50 for `COc1ccc(-c2oc3ncnc(N)c3c2-c2ccc(NC(=O)Nc3cc(C(F)(F)F)ccc3F)cc2)cc1` .
Out: 0.833 µM

In: Name the recorded GI50 for `COc1ccc2c(c1)/C(=C\c1c(-c3ccccc3)nc3sccn13)C(=O)N2` .
Out: 24 µM

In: Name the recorded GI50 for CCC(CO)Nc1nc(NCc2ccccc2)c2n[nH]c(C(C)C)c2n1 (stereo not given) .
Out: 3.24 µM

In: Name the recorded GI50 for `CC1(C)N=C(N)N=C(N)N1c1cccc(CCCCc2ccc(Cl)c(S(=O)(=O)F)c2)c1` .
Out: 2.44 µM

In: Name the recorded GI50 for `O=C(Nc1ccc(Cl)cc1)c1cc(NCc2cc(O)ccc2O)ccc1O` .
Out: 3.84 µM

* * *

- System: U251 CNS
- PROTOCOL_NOTES: NCI tumour cell line growth inhibition, 48 h
TGI listing for selected molecules.
Report the value in µM with no unit label.

Known TGI results, listed for orientation:
{"MOLECULE": "Cc1cc2c3c(nc2c2cc[nH]c(C)c12)CCCC3", "EXPERIMENTAL_TARGET": "U251 CNS", "PROPERTY_LABEL": "TGI", "VALUE": 3.83}
{"MOLECULE": "COc1ccc2c(c1)C(=O)/C(=C/c1ccc(O)cc1)O2", "EXPERIMENTAL_TARGET": "U251 CNS", "PROPERTY_LABEL": "TGI", "VALUE": 27.2}
{"MOLECULE": "NC(CCl)=NCC12CC3CC(CC(C3)C1)C2", "EXPERIMENTAL_TARGET": "U251 CNS", "PROPERTY_LABEL": "TGI", "VALUE": 12.1}
{"MOLECULE": "Cc1ccc(C(=O)C2C=C(c3ccc(C)cc3)SC3C=CCC32)cc1 (stereo unspecified)", "EXPERIMENTAL_TARGET": "U251 CNS", "PROPERTY_LABEL": "TGI", "VALUE": 32.5}

In: Name the recorded TGI for `COc1ccc(-c2c(NC(=O)Nc3ccc(Cl)c(C(F)(F)F)c3)cnn2-c2ccc(S(N)(=O)=O)cc2)cc1` .
Out: 12.3

In: Name the recorded TGI for `C/C1=C\[C@@H](C)C[C@@H](C)OC(=O)[C@@H](C)NC(=O)[C@H](Cc2ccc(O)c(Br)c2)N(C)C(=O)CNC(=O)[C@H](C)C1` .
Out: 5.34

* * *

- Tested on: HOP-92 NSCLC
- PROTOCOL_NOTES: NCI tumour cell line growth inhibition, 48 h
TGI listing for selected molecules.
Report the value in µM with no unit label.

{"STRUCTURE_SMILES": "O=C1NCN(c2ccccc2)C12CCN(CCCN1CCN(CCOC(c3ccccc3)c3ccccc3)CC1)CC2", "PROPERTY_LABEL": "TGI", "VALUE": 5.54}

In: Name the recorded TGI for `COc1ccc2c(c1)c1ccc3c(c1n2C)C(=O)C=CC3=O` .
Out: 14.5

* * *

- System: SF-539 CNS
- PROTOCOL_NOTES: NCI tumour cell line growth inhibition, 48 h
PROPERTY_LABEL: TGI (µM)
Report the value in µM with no unit label.

{"STRUCTURE_SMILES": "N=C1c2ccccc2C(=O)c2c(NCCNCCO)ccc(O)c21", "TGI, µM": 16.3}

Turning now to a further molecule:
In: Name the recorded TGI for `CC1(C)N=C(N)N=C(N)N1c1cccc(CCCCc2ccc(Cl)c(S(=O)(=O)F)c2)c1` .
Out: 13

* * *

TGI listing for selected compounds.
- System: EKVX NSCLC
- PROTOCOL_NOTES: NCI tumour cell line growth inhibition, 48 h
Report the value in µM with no unit label.

{"STRUCTURE_SMILES": "C/C(=N\\NC(=O)c1ccccc1O)c1c(O)cc(C)oc1=O", "EXPERIMENTAL_TARGET": "EKVX NSCLC", "UNIT_ABBREVIATION": "µM", "VALUE": 88.6}

Turning now to a further compound:
In: Name the recorded TGI for `COc1ccc2c(c1)c1ccc3c(c1n2C)C(=O)C=CC3=O` .
Out: 35.7
